Data provenance: ChEMBL document CHEMBL3603820

test: Tmax in C57BL/6 mouse brain at 1.81 mg/kg, po; format: ADME, organism-based
value.type: Tmax (h)

>>> df
                                   compound  recorded_number
0  N#Cc1cccc(COc2ccc3c(c2)CN2C(=O)CN(C4CCCC4)C(=O)[C@H]2C3)c1                1

###

system: Brain; assay: Drug concentration in C57BL/6 mouse brain at 13.4 mg/kg, ip; assay type: ADME, organism-based; conditions: in vivo, read-out: Drug uptake
value.type: concentration (µM)

                                   compound  recorded_number
0  N#Cc1cccc(COc2ccc3c(c2)CN2C(=O)CN(C4CCCC4)C(=O)[C@H]2C3)c1              6.1
